Assay: Selectivity index, ratio of IC50 for antiproliferative activity against human MCF-10A cells to IC50 for antiproliferative activity against human MDA-MB-231 cells by MTT assay
Assay type: toxicity, cell-based
Details: MCF-10A cells versus MDA-MB-231 cells, read-out: Ratio IC50
PROPERTY: selectivity ratio
Format: numeric value only, no unit, no commentary.

[in] Need selectivity ratio of CCCCCCOC(=O)/C=C\C=C/[C@H](C)[C@H]1CC[C@]2(C)C[C@@H]3C(C)=CC(=O)[C@H]3/C(C=O)=C\C[C@@H]12 , thanks.
[out] 1.52

[in] For the compound CCCCCCCCOC(=O)/C=C/[C@H](C)[C@H]1CC[C@]2(C)C[C@@H]3C(C)=CC(=O)[C@H]3/C(C=O)=C\C[C@@H]12 , what selectivity ratio is on record?
[out] 1.11

[in] Which selectivity ratio reading was recorded for the compound CC1=CC(=O)[C@H]2/C(C=O)=C\C[C@H]3[C@@H]([C@@H](C)/C=C\C=C/C(=O)OCCOCCOCCOC(=O)CC45CC6CC(CC(C6)C4)C5)CC[C@]3(C)C[C@H]12 ?
[out] 5.34
